Data credit: ChEMBL document CHEMBL4014335

Test system: CYP1A1 mRNA
Assay: Upregulation of CYP1A1 mRNA expression in human MCF7 cells at 10 nM after 18 hrs by quantitative PCR analysis relative to control
Type: ADME, cell-based
Conditions: read-out: FC
measurement.type: fold induction at 18 h, 0.01 µM
One number for each entry.

Q: Form field: reported fold induction at 18 h, 0.01 µM of CCCCN1CCN(c2ccc(S(=O)(=O)Oc3cc(OC)c(OC)c(OC)c3)cc2)C1=O
Result: 2

* * *

Test: Selectivity ratio of IC50 for ER/PR/HER2 deficient human MDA-MB-231 cells to IC50 for human MCF7 cells
Assay type: functional
measurement.type: Ratio IC50
Answers are plain numbers.

For every record below, what is its Ratio IC50?
1. CCCN1CCN(c2ccc(S(=O)(=O)Oc3cc(OC)c(OC)c(OC)c3)cc2)C1=O
2. COc1cc(OC)cc(OS(=O)(=O)c2ccc(N3CCNC3=O)cc2)c1
3. COc1cc(OS(=O)(=O)c2ccc(N3CCNC3=O)cc2)cc(OC)c1OC
4. CCCCN1CCN(c2ccc(S(=O)(=O)Oc3cc(OC)c(OC)c(OC)c3)cc2)C1=O

Result:
340
2.5
2.1
1100

* * *

Biological target: Cytochrome P450 1A1 (Homo sapiens)
Sequence (P04798 whole entry): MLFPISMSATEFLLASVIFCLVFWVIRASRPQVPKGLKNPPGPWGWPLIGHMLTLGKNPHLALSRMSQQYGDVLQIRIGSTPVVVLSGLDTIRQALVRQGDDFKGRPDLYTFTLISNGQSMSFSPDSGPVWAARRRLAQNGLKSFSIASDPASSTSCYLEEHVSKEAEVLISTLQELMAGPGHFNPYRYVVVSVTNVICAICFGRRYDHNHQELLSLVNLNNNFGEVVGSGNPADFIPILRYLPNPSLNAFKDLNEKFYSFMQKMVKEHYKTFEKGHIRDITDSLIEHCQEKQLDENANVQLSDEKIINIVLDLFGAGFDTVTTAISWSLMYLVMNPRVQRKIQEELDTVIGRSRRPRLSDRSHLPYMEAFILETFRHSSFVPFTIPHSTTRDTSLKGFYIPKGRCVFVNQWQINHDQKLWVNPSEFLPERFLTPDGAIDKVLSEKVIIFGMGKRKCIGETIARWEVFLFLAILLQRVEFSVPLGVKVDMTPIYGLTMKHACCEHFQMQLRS
Experiment: Inhibition of human supersomes CYP1A1-mediated 7-ethoxyresorufin conversion to fluorescent resorufin preincubated with 7-ethoxyresorufin for 5 mins followed by addition of NADPH regenerating system measured for 15 mins by EROD assay
Type: ADME
Settings: read-out: Ki
I'd be grateful if you could share measured Ki for these entries.
Hi, when you answer, please include the unit after the number. Thanks!

For every record below, what is its Ki?
1. CCCN1CCN(c2ccc(S(=O)(=O)Oc3cc(OC)c(OC)c(OC)c3)cc2)C1=O
2. CCCCN1CCN(c2ccc(S(=O)(=O)Oc3cc(OC)c(OC)c(OC)c3)cc2)C1=O
3. CCCCN1CCN(c2ccc(S(=O)(=O)Oc3cc(OC)cc(OC)c3)cc2)C1=O

Result:
1: 240 nM; 2: 540 nM; 3: 490 nM

* * *

Assay: Stability in human liver microsomes assessed as compound remaining after 60 mins by HPLC-MS analysis
measurement.type: remaining at 1 h (%)
Give bare numbers, in %.

Q: Form field: reported remaining at 1 h of CCCCN1CCN(c2ccc(S(=O)(=O)Oc3cc(OC)c(OC)c(OC)c3)cc2)C1=O
Result: 25

* * *

I'd be grateful if you could share measured Ratio IC50 for these entries.
Experiment: Selectivity ratio of IC50 for ER/PR/HER2 deficient human MDA-MB-231 cells to IC50 for ER/PR/HER2 deficient human MDA-MB-468 cells
Assay type: functional

For every record below, what is its Ratio IC50?
1. COc1cc(OS(=O)(=O)c2ccc(N3CCNC3=O)cc2)cc(OC)c1OC
2. CCCCN1CCN(c2ccc(S(=O)(=O)Oc3cc(OC)cc(OC)c3)cc2)C1=O
3. COc1cc(OC)cc(OS(=O)(=O)c2ccc(N3CCNC3=O)cc2)c1
4. CCCN1CCN(c2ccc(S(=O)(=O)Oc3cc(OC)c(OC)c(OC)c3)cc2)C1=O
5. CCCCN1CCN(c2ccc(S(=O)(=O)Oc3cc(OC)c(OC)c(OC)c3)cc2)C1=O

Result:
1: 1.4; 2: >630; 3: 1.5; 4: 240; 5: 590
